Test system: Rattus norvegicus
method notes: Anti-inflammatory activity in Wistar rat assessed as reduction in carrageenan induced paw edema by measuring paw volume as ml of Hg at 100 mg/kg, po administered 30 mins before carrageenan challenge measured 2 hrs post carrageenan challenge (reference value: 0.36 +/- 0.3 ml of Hg)
Assay type: functional
Activity vs 0.8 mL: at or above is Met, below is Not met.

Answered examples (5):
- Cc1noc2c(C(=O)c3ccc(Cl)cc3)noc12: Not met
- Cc1noc2c(C(=O)c3ccccc3)noc12: Met
- Cc1noc2c(C(=O)c3ccccc3O)noc12: Met
- Cc1noc2c(C(=O)c3ccccc3Cl)noc12: Not met
- Cc1noc2c(C(=O)c3ccc(N(C)C)cc3)noc12: Met

Task item: Could you tell me if the measured Activity of Cc1noc2c(C(=O)c3ccccc3[N+](=O)[O-])noc12 reaches 0.8 mL or more?
Reply: Met

Task item: Threshold query (Activity >= 0.8 mL) on Cc1noc2c(C(=O)c3ccccc3Br)noc12
Reply: Not met

Task item: Activity >= 0.8 mL for COc1ccc(C(=O)c2noc3c(C)noc23)cc1 ?
Reply: Not met

Task item: Evaluate Cc1noc2c(C(=O)c3ccc(Br)cc3)noc12 : Activity at minimum 0.8 mL?
Reply: Not met

Data origin, for the record: ChEMBL document CHEMBL3397034
